B1: STK38L (parent)
chain: FLPGGDMMTLLMKKDTLTEEETQF

Variants of: B1
Assay: protein stability index of a GFP-peptide fusion (GPS, HEK-293T) (PSI 1-6); higher = more stable;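 also: lentivirally expressed fusions sorted by FACS into six bins by GFP to DsRed ratio, PSI derived from sequencing read proportions per bin multiplied by bin number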
Details: c terminus: a fixed tail appended
Please note: t applies when protein stability index is 2 or greater, and f applies otherwise.

*Q* Say whether `FLPGIDMMTLLMKKDTLTEEETQF` shows protein stability index of 2 or more.
*A* t

*Q* Say whether `FLPGGDMGTLLMKKDTLTEEETQF` shows protein stability index of 2 or more.
*A* t

*Q* Say whether `FLPGGDMMTLLMKKRTLTEEETQF` shows protein stability index of 2 or more.
*A* f

*Q* Say whether `FLPGGDMMTLLMKKDALTEEETQF` shows protein stability index of 2 or more.
*A* t

*Q* Say whether `FLPGGDMMTLLMKKDTLTEEELQF` shows protein stability index of 2 or more.
*A* t

*Q* Say whether `FLPGGYMMTLLMKKDTLTEEETQF` shows protein stability index of 2 or more.
*A* t

*Q* Say whether `FLPGGDMMTLLMKKDTLTEEETQW` shows protein stability index of 2 or more.
*A* t

*Q* Say whether `FLPGGDMMTLWMKKDTLTEEETQF` shows protein stability index of 2 or more.
*A* f

*Q* Say whether `FLPGGSMMTLLMKKDTLTEEETQF` shows protein stability index of 2 or more.
*A* t

*Q* Say whether `FLPGGDMMTLLSKKDTLTEEETQF` shows protein stability index of 2 or more.
*A* t

*Q* Say whether `FLPGGDMMTLLMKKDTLQEEETQF` shows protein stability index of 2 or more.
*A* t

*Q* Say whether `WLPGGDMMTLLMKKDTLTEEETQF` shows protein stability index of 2 or more.
*A* t

*Q* Say whether `FLPGGDMMTLLMKNDTLTEEETQF` shows protein stability index of 2 or more.
*A* f

*Q* Say whether `FLPGGDMMTLLMKKDTGTEEETQF` shows protein stability index of 2 or more.
*A* t

*Q* Say whether `FLPGGDMMTLLMKKDTCTEEETQF` shows protein stability index of 2 or more.
*A* t

*Q* Say whether `FLPGGDMMTLLMKKDTLTEEEPQF` shows protein stability index of 2 or more.
*A* f

*Q* Say whether `FLPGGDMMTLLMKKDTITEEETQF` shows protein stability index of 2 or more.
*A* t

*Q* Say whether `FLPGGDMMTLLMKKETLTEEETQF` shows protein stability index of 2 or more.
*A* t

*Q* Say whether `FLPGGDMMTLLNKKDTLTEEETQF` shows protein stability index of 2 or more.
*A* t

*Q* Say whether `FLPGGDMMTLLMKKDTLTREETQF` shows protein stability index of 2 or more.
*A* f

Sourced from the supplement of paper PMC10567573
